Source listed as the supplement of paper PMC9112550.

Give shrunken log2 fold change for every item shown.
System: Escherichia coli TOP10;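 note: peptides expressed intracellularly from a pBAD plasmid library in pooled LB shake-flask culture, induced with 0.3% L-arabinose, DNA abundance read by NGS, three biological replicates, DESeq2 with apeglm shrinkage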
experiment: shrunken log2 fold change of peptide-encoding DNA abundance (4.5 h post-induction vs induction); higher = less antimicrobial activity (less host growth inhibition)
details: time post-induction: 4.5 h; library: site-saturation at positions 5, 18, 19, 20
Answers are plain numbers.

Some sequences with known shrunken log2 fold change results, for comparison:
Kindly note the recorded shrunken log2 fold change for RRIRYRPPRLPRPRPRPQGFPRP , which is -0.0121

Kindly note the recorded shrunken log2 fold change for RRIRHRPPRLPRPRPRPEGDPRP , which is 0.383

Kindly note the recorded shrunken log2 fold change for RRIRMRPPRLPRPRPRPERGPRP , which is 1.39

Dear colleague, could you please provide shrunken log2 fold change for the sequences listed below?
1. RRIRSRPPRLPRPRPRPHDLPRP
2. RRIRLRPPRLPRPRPRPIVWPRP
3. RRIRHRPPRLPRPRPRPNSTPRP
4. RRIRVRPPRLPRPRPRPICCPRP
5. RRIRSRPPRLPRPRPRPQNQPRP

(A)
1: 0.0653; 2: -0.027; 3: -1.48; 4: -0.0831; 5: -0.455

Dear colleague, could you please provide shrunken log2 fold change for the sequences listed below?
1. RRIRMRPPRLPRPRPRPMINPRP
2. RRIRNRPPRLPRPRPRPRSHPRP
3. RRIRRRPPRLPRPRPRPVDYPRP
4. RRIRFRPPRLPRPRPRPITDPRP
5. RRIRARPPRLPRPRPRPPRPPRP
6. RRIRQRPPRLPRPRPRPNSTPRP

(A)
-0.00763
-0.127
-0.0118
0.0437
1
-0.642

Dear colleague, could you please provide shrunken log2 fold change for the sequences listed below?
1. RRIRARPPRLPRPRPRPDFDPRP
2. RRIRSRPPRLPRPRPRPVCYPRP
3. RRIRPRPPRLPRPRPRPWGMPRP
4. RRIRKRPPRLPRPRPRPRIAPRP

(A)
1: 1.07; 2: -0.268; 3: -0.128; 4: 0.599

Dear colleague, could you please provide shrunken log2 fold change for the sequences listed below?
1. RRIRSRPPRLPRPRPRPYPNPRP
2. RRIRKRPPRLPRPRPRPEWVPRP

(A)
1: 0.00334; 2: 0.478

Dear colleague, could you please provide shrunken log2 fold change for the sequences listed below?
1. RRIRQRPPRLPRPRPRPSMAPRP
2. RRIRRRPPRLPRPRPRPRQTPRP

(A)
1: -0.135; 2: 0.0881

Dear colleague, could you please provide shrunken log2 fold change for the sequences listed below?
1. RRIRGRPPRLPRPRPRPGWAPRP
2. RRIRARPPRLPRPRPRPGSWPRP
3. RRIRARPPRLPRPRPRPLWLPRP
4. RRIRKRPPRLPRPRPRPWQGPRP
5. RRIRDRPPRLPRPRPRPRYFPRP

(A)
1. 0.992
2. 0.759
3. 0.302
4. 0.0142
5. 0.242

Dear colleague, could you please provide shrunken log2 fold change for the sequences listed below?
1. RRIRWRPPRLPRPRPRPWCDPRP
2. RRIRARPPRLPRPRPRPGLWPRP
3. RRIRIRPPRLPRPRPRPIHNPRP
4. RRIRFRPPRLPRPRPRPHYYPRP
5. RRIRPRPPRLPRPRPRPHFYPRP
6. RRIRKRPPRLPRPRPRPFRNPRP
7. RRIRIRPPRLPRPRPRPYTIPRP
8. RRIRGRPPRLPRPRPRPACAPRP

(A)
1. -0.0997
2. 1.04
3. -0.936
4. -0.524
5. -0.217
6. -0.309
7. -0.605
8. 1.13

Dear colleague, could you please provide shrunken log2 fold change for the sequences listed below?
1. RRIRWRPPRLPRPRPRPKEIPRP
2. RRIRKRPPRLPRPRPRPNFSPRP
3. RRIRPRPPRLPRPRPRPAAFPRP
4. RRIRSRPPRLPRPRPRPPDRPRP

(A)
0.487
-0.084
0.207
0.643
